- test_system: T1, soluble form of GPC3 core protein (human, UniProt P51654 25-563)
- T1 construct: not shown: His tag added to the C-terminus
- T1 sequence (P51654 25-563 S495A/S509A, form in doubt): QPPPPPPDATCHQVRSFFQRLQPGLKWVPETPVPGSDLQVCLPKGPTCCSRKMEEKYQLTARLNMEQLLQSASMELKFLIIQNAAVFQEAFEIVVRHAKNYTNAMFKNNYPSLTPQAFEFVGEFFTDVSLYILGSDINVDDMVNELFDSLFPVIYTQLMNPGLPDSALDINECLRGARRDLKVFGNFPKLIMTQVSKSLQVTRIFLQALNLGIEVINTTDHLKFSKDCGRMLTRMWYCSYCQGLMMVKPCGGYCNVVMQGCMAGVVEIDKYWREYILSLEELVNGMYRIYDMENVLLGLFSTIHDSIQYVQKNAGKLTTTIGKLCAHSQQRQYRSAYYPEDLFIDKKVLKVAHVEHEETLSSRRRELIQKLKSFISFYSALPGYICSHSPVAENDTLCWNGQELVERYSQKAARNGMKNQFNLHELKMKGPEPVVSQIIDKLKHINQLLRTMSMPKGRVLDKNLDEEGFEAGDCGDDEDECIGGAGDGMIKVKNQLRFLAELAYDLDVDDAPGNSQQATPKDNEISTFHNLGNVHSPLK
- assay_text: competitive ELISA on coated soluble GPC3 core protein; labelled competitor biotin-L9G11;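 also: Biotin-labelled antibody added as 10 µL at 10 µg/mL for 1 h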
Tag: T if measured Inhibition of the binding of indicated biotin-Mab to sGPC3 core (%) is not below 7%, F if it is.

Use these answered entries as a reference point.
>>> cat("M18D4 (antibody, human IgG1, kappa, V domains shown, Mouse monoclonal from hybridoma) VH: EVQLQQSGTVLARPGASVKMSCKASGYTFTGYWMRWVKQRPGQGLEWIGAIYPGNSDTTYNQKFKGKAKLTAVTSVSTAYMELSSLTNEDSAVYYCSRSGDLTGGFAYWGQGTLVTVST VL: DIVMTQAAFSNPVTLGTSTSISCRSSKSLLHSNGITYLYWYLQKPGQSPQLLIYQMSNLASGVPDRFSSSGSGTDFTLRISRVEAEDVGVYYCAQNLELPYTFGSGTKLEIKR")
"F"
>>> cat("M5B9 (antibody, V domains shown, Mouse monoclonal from hybridoma) VH: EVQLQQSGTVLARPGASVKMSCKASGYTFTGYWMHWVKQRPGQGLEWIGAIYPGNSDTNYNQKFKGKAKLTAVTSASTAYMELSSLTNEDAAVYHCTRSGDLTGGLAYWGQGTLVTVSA VL: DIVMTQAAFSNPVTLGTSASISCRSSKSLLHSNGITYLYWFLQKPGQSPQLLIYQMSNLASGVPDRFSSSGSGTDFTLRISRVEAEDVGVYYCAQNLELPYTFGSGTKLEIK")
"T"
>>> cat("M6B1 (antibody, V domains shown, Mouse monoclonal from hybridoma) VH: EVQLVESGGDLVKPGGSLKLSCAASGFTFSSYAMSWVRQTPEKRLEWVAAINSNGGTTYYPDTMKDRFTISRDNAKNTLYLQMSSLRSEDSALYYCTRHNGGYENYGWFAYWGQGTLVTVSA VL: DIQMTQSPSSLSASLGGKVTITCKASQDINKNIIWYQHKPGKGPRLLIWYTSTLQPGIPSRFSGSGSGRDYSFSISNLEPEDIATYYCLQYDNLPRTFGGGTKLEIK")
"F"

Ask | Entry L9G11 (antibody, V domains shown, Mouse monoclonal from hybridoma) VH: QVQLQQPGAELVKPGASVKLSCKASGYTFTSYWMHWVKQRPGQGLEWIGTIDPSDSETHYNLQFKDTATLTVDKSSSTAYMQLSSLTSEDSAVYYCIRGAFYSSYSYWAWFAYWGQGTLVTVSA VL: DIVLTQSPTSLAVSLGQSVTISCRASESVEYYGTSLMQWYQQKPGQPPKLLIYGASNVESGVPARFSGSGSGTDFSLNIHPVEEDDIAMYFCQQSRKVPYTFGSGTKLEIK : is its Inhibition of the binding of indicated biotin-Mab to sGPC3 core (%) no less than 7%?
Reply | T

Ask | Does M11F1 (antibody, V domains shown, Mouse monoclonal from hybridoma) VH: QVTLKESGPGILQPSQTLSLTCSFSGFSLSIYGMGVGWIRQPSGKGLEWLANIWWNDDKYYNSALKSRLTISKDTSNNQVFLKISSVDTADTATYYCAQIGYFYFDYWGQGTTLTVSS VL: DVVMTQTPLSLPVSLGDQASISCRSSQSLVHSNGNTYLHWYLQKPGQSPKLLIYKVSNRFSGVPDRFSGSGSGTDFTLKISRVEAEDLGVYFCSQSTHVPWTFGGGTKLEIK have a reported Inhibition of the binding of indicated biotin-Mab to sGPC3 core (%) of at least 7%?
Reply | T

Ask | Is the recorded value of Inhibition of the binding of indicated biotin-Mab to sGPC3 core (%) equal to or greater than 7% for this binder? M1E7 (antibody, human IgG1, kappa, V domains shown, Mouse monoclonal from hybridoma; also called M1E07) VH: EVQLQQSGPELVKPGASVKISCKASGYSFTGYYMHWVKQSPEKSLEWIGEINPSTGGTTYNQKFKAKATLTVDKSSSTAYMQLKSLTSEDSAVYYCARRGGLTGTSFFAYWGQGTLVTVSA VL: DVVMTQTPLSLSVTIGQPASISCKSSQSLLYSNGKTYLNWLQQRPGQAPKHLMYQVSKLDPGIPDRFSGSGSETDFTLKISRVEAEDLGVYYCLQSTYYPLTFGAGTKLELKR
Reply | T

Numbers sourced from patent US20100248359A1.
